Molecular target: NS3-NS4A protease (Hepatitis C virus genotype 1a)
Construct: Recombinant E. coli or Baculovirus full-length NS3 was diluted to 3.33 μM with assay buffer; made in house; host or cells: E. coli or baculovirus (BV) system
Sequence (P27958 1027-1657): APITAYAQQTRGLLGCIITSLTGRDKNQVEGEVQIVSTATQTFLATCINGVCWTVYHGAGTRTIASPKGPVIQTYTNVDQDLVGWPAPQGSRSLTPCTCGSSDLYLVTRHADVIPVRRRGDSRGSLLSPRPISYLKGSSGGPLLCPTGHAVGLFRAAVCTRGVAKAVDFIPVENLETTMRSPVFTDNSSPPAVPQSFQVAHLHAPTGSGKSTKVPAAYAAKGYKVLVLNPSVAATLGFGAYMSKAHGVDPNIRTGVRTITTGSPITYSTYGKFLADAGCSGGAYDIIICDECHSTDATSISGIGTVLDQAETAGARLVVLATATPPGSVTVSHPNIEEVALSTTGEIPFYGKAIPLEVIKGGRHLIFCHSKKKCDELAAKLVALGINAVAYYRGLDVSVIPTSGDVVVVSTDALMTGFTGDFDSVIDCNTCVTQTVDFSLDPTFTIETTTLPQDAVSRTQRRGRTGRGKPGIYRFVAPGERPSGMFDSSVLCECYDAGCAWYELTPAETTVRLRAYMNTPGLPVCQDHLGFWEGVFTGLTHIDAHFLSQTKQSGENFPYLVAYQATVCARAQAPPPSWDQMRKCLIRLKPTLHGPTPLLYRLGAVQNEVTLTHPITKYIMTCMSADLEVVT
Assay: NS3-NS4A protease assay (NS3 inhibition assay, RETS1 substrate), Section B
Type: biochemical
Conditions: read-out: NS3-NS4A IC50
# IC50 values compiled below

Please review the following examples before continuing.
O=C(N[C@H]1CCCCC/C=C\[C@@H]2C[C@@]2(C(=O)O)NC(=O)[C@@H]2C[C@@H](OC(=O)N3CCc4ccccc4C3)CN2C1=O)O[C@@H]1CCOC1 :: < 1000 nM
CC1(C)CN(C(=O)O[C@@H]2C[C@H]3C(=O)N[C@]4(C(=O)NS(=O)(=O)C5CC5)C[C@H]4/C=C\CCCCC[C@H](NC(=O)O[C@H]4CCOC4)C(=O)N3C2)Cc2ccccc21 :: < 100 nM
CN(C)c1ccc(S(=O)(=O)NC(=O)[C@@]23C[C@H]2/C=C\CCCCC[C@H](NC(=O)OC(C)(C)C)C(=O)N2C[C@H](OC(=O)N4Cc5ccccc5C4)C[C@H]2C(=O)N3)cc1 :: < 100 nM
CC(C)(C)OC(=O)N[C@H]1CCCCC/C=C\[C@@H]2C[C@@]2(C(=O)O)NC(=O)[C@@H]2C[C@@H](OC(=O)N3Cc4ccc(Cl)cc4C3)CN2C1=O :: < 1000 nM
O=C(N[C@H]1CCCCC/C=C\[C@@H]2C[C@@]2(C(=O)NS(=O)(=O)C2CC2)NC(=O)C2C[C@@H](OC(=O)N3CCc4ccccc4C3CN3CCCCC3)CN2C1=O)OC1CCCC1 (some centres unmarked) :: < 100 nM

Proceeding to the next molecule to report its IC50.
Task: Quick check: IC50 on NS3-NS4A protease (Hepatitis C virus genotype 1a), item CC(C)(C)NC(=O)N[C@H]1CCCCC/C=C\[C@@H]2C[C@@]2(C(=O)O)NC(=O)[C@@H]2C[C@@H](OC(=O)N3Cc4cc(Cl)c(Cl)cc4C3)CN2C1=O ?
Result: < 1000 nM
